Catalogue of pIC50 values
- measuredOn: ATP-binding cassette sub-family C member 4 (Homo sapiens)
- protocolText: Inhibition of human MRP4 overexpressed in Sf9 cell membrane vesicles assessed as uptake of [3H]-estradiol-17beta-D-glucuronide in presence of ATP and GSH measured after 20 mins by membrane vesicle transport assay
pIC50: −log10 of the molar value. Where a name gives a salt, the structure may show the parent alone.

Solved cases below.
[[record]]
compound = "COc1cc(NS(C)(=O)=O)ccc1Nc1c2ccccc2nc2ccccc12 [AMSACRINE]"
reading = 5.13

[[record]]
compound = "CC[C@@H](CO)NCCN[C@@H](CC)CO [ETHAMBUTOL HYDROCHLORIDE]"
reading = "< 3.88"

[[record]]
compound = "Nc1nc(Cl)nc2c1ncn2[C@H]1C[C@H](O)[C@@H](CO)O1 [CLADRIBINE]"
reading = "< 3.88"

[[record]]
compound = "O=C1c2c(O)cccc2Cc2cccc(O)c21 [ANTHRALIN]"
reading = "< 3.88"

[[record]]
compound = "O=C(O)c1ccccc1-c1c2ccc(=O)cc-2oc2cc(O)ccc12"
reading = "< 3.88"


QUERY: # get_value(readout= pIC50, system= ATP-binding cassette sub-family C member 4 (Homo sapiens)) for CC[C@H]1OC(=O)[C@H](C)[C@@H](O[C@H]2C[C@@](C)(OC)[C@@H](O)[C@H](C)O2)[C@H](C)[C@@H](O[C@@H]2O[C@H](C)C[C@H](N(C)C)[C@H]2O)[C@](C)(O)C[C@@H](C)/C(=N\OCOCCOC)[C@H](C)[C@@H](O)[C@]1(C)O [ROXITHROMYCIN]
RESULT: < 3.88

QUERY: Try CCCCNc1cc(C(=O)O)cc(S(N)(=O)=O)c1Oc1ccccc1 [BUMETANIDE] next.
RESULT: < 3.88

QUERY: Try CC1(C)O[C@@H]2C[C@H]3[C@@H]4C[C@H](F)C5=CC(=O)C=C[C@]5(C)[C@H]4[C@@H](O)C[C@]3(C)[C@]2(C(=O)CO)O1 [FLUNISOLIDE] next.
RESULT: < 3.88

QUERY: Try CCCCN1CCCCC1C(=O)Nc1c(C)cccc1C (stereo unspecified) [BUPIVACAINE HYDROCHLORIDE] next.
RESULT: < 3.88

QUERY: Try C=C(c1ccc(C(=O)O)cc1)c1cc2c(cc1C)C(C)(C)CCC2(C)C [BEXAROTENE] next.
RESULT: < 3.88

QUERY: Try O=C(O)c1cc(/N=N/c2ccc(S(=O)(=O)Nc3ccccn3)cc2)ccc1O [SULFASALAZINE] next.
RESULT: 5.82

###

- measuredOn: UniProt:O15439
- Sequence (O15439 whole entry): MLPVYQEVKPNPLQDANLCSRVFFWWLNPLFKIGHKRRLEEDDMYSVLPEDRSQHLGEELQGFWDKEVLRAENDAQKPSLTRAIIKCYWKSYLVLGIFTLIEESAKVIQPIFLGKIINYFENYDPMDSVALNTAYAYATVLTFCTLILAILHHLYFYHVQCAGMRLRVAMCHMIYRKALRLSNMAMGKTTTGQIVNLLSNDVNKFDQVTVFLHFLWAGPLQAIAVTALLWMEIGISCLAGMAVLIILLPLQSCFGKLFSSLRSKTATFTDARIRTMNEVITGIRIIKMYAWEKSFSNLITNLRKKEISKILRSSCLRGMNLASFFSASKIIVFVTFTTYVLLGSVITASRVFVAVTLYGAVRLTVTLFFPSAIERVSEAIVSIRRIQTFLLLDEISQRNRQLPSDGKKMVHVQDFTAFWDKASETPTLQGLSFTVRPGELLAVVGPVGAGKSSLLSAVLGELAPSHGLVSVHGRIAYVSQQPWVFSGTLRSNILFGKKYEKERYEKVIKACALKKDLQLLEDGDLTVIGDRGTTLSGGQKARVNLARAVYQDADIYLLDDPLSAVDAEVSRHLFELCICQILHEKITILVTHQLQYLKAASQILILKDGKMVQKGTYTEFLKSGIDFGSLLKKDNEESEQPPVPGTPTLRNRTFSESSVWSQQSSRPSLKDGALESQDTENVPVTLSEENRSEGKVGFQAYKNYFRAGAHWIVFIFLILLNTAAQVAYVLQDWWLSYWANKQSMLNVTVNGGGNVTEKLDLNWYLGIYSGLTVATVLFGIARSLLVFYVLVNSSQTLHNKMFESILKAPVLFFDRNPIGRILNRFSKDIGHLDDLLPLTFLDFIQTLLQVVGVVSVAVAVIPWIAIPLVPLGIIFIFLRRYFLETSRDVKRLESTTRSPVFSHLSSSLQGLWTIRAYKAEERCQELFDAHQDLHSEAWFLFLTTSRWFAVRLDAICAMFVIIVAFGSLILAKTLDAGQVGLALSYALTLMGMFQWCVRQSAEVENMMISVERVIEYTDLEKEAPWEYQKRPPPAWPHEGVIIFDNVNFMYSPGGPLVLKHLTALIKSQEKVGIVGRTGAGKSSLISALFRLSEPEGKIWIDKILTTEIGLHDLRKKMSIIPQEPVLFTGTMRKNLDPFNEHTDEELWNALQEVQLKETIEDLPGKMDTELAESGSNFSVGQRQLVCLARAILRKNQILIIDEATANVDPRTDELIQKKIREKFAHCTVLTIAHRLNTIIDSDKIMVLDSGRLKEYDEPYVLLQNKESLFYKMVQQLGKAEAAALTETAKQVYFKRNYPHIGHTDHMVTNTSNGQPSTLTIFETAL
- protocolText: Inhibition of human MRP4 overexpressed in Sf9 cell membrane vesicles assessed as uptake of [3H]-estradiol-17beta-D-glucuronide in presence of ATP and GSH measured after 20 mins by membrane vesicle transport assay
pIC50: −log10 of the molar value. Structures can show the parent of a compound that is named as a salt.
Catalogue of pIC50 values

[[record]]
compound = "CNCCCC12CCC(c3ccccc31)c1ccccc12"
reading = "< 3.88"

[[record]]
compound = "CN(C)CC[C@@H](c1ccc(Cl)cc1)c1ccccn1 [DEXCHLORPHENIRAMINE MALEATE]"
reading = "< 3.88"

[[record]]
compound = "C[C@]12C/C(=C/O)C(=O)C[C@@H]1CC[C@@H]1[C@@H]2CC[C@@]2(C)[C@H]1CC[C@]2(C)O"
reading = "< 3.88"

[[record]]
compound = "OCCN(CCO)c1nc(N2CCCCC2)c2nc(N(CCO)CCO)nc(N3CCCCC3)c2n1"
reading = 5.08

[[record]]
compound = "CCOC(=O)[C@H](CCc1ccccc1)N[C@@H](C)C(=O)N1[C@H](C(=O)O)C[C@@H]2CCC[C@@H]21"
reading = "< 3.88"

[[record]]
compound = "NC(=O)CC[C@@H]1NC(=O)[C@H](Cc2ccccc2)NC(=O)[C@H](Cc2ccc(O)cc2)NC(=O)[C@@H](N)CSSC[C@@H](C(=O)N2CCC[C@H]2C(=O)N[C@@H](CCCN=C(N)N)C(=O)NCC(N)=O)NC(=O)[C@H](CC(N)=O)NC1=O"
reading = "< 3.88"

[[record]]
compound = "Cc1cc(C2CCCCC2)n(O)c(=O)c1"
reading = "< 3.88"

[[record]]
compound = "COc1ccc2cc1Oc1cc3c(cc1OC)CC[N+](C)(C)[C@H]3Cc1ccc(cc1)Oc1c(OC)c(OC)cc3c1[C@@H](C2)[N+](C)(C)CC3"
reading = "< 3.88"

[[record]]
compound = "Oc1ccc(C2CNCCc3c2cc(O)c(O)c3Cl)cc1 (configuration not stated) [FENOLDOPAM MESYLATE]"
reading = "< 3.88"

[[record]]
compound = "CCCCNC(=O)c1ccc(Oc2ccc(CC(=O)O)cc2OC)c(NS(=O)(=O)c2ccc(Cl)cc2Cl)c1"
reading = 4.87


Now consider the entry below.
QUERY: Fill in: pIC50 of CN1CCN(C2=Nc3cc(Cl)ccc3Nc3ccccc32)CC1 is ___
RESULT: < 3.88

###

Catalogue of pIC50 values
- measuredOn: Bile salt export pump (Homo sapiens, UniProt O95342)
- Sequence (O95342 whole entry): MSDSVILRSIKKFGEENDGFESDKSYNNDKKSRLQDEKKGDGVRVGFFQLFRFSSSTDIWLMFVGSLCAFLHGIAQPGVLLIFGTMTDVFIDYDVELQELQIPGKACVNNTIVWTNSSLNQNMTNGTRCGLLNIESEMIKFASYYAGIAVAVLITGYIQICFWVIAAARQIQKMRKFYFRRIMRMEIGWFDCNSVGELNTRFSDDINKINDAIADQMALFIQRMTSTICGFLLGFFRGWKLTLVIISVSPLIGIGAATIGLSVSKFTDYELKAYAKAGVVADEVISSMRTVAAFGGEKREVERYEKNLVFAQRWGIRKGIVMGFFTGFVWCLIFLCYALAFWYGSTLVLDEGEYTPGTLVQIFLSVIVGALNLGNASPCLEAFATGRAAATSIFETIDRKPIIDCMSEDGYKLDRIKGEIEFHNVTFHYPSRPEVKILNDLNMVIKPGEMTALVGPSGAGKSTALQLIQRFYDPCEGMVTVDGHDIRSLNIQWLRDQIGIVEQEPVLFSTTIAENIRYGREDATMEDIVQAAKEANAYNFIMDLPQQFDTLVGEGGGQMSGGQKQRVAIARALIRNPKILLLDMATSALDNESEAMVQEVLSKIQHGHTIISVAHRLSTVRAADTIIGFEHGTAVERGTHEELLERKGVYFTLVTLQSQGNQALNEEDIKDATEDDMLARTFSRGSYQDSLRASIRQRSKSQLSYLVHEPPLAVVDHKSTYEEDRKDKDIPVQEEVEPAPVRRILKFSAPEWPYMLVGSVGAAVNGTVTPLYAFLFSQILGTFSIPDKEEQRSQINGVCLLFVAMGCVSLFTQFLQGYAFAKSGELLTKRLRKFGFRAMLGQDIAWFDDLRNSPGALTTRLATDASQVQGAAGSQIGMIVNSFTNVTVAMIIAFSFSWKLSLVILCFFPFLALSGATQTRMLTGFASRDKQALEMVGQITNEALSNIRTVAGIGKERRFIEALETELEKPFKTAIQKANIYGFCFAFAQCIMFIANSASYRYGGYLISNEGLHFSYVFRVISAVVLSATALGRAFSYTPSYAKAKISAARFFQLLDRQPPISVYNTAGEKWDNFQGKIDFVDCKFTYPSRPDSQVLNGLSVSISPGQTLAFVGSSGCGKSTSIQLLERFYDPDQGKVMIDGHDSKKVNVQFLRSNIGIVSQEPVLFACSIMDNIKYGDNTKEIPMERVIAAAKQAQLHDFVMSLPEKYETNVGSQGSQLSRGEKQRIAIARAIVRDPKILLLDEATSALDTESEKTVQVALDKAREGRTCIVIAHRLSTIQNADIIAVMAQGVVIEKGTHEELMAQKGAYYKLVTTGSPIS
- protocolText: Inhibition of human BSEP overexpressed in Sf9 cell membrane vesicles assessed as uptake of [3H]-taurocholate in presence of ATP measured after 15 to 20 mins by membrane vesicle transport assay
pIC50: −log10 of the molar value.

[[record]]
compound = "COc1c(N2CCNC(C)C2)c(F)cc2c(=O)c(C(=O)O)cn(C3CC3)c12 (stereo not drawn)"
reading = "< 3.88"

[[record]]
compound = "CCN[C@H]1CN(CCCOC)S(=O)(=O)c2sc(S(N)(=O)=O)cc21 [BRINZOLAMIDE]"
reading = "< 3.88"


Now consider the entry below.
QUERY: # get_value(readout= pIC50, system= Bile salt export pump (Homo sapiens, UniProt O95342)) for C[C@@H]1CCN(C(=O)CC#N)C[C@@H]1N(C)c1ncnc2[nH]ccc12
RESULT: < 3.88

###

- measuredOn: ATP-binding cassette sub-family C member 4 (Homo sapiens, UniProt O15439)
- protocolText: Inhibition of human MRP4 overexpressed in Sf9 cell membrane vesicles assessed as uptake of [3H]-estradiol-17beta-D-glucuronide in presence of ATP and GSH measured after 20 mins by membrane vesicle transport assay
pIC50: −log10 of the molar value.
Catalogue of pIC50 values

QUERY: Fill in: pIC50 of NCC1O[C@H](O[C@H]2[C@@H](O)[C@H](O[C@H]3[C@H](O)[C@@H](N)C[C@@H](N)[C@@H]3O[C@H]3O[C@H](CN)[C@@H](O)[C@H](O)[C@H]3N)O[C@@H]2CO)[C@H](N)[C@@H](O)[C@@H]1O (stereo partly drawn) is ___
RESULT: < 3.88

QUERY: Try CCC(=O)O[C@@H]1CC(=O)O[C@H](C)C/C=C/C=C/[C@H](O)[C@H](C)C[C@H](CC=O)[C@H](O[C@@H]2O[C@H](C)[C@@H](O[C@H]3C[C@@](C)(O)[C@@H](OC(=O)CC)[C@H](C)O3)[C@H](N(C)C)[C@H]2O)[C@H]1OC [MIDECAMYCIN] next.
RESULT: < 3.88

QUERY: Try COCCc1ccc(OCC(O)CNC(C)C)cc1 (stereo not drawn) [METOPROLOL] next.
RESULT: < 3.88

The measured values listed here are drawn from ChEMBL document CHEMBL4028801.
